Quick reference for PBM E-score among some sequences
# Test system: Caupolican (Caup) homeodomain DNA-binding domain
# Sequence: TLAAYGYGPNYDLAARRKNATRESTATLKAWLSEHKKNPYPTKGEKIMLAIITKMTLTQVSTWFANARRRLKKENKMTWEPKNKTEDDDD
# assayOverview: PBM E-score (8-mer, recovered from the published 9-mer minima) (E-score (dimensionless, -0.5 to 0.5)); Drosophila protein; higher = stronger relative binding preference, active = 0.31 or more
The sample as a whole holds a higher share of hits than the screen did. How many sequences the whole screen found active is unknown.
quantityKind: PBM E-score

>>> assayresult("TCATGTAA")
"0.427 (active)"
>>> assayresult("CTCGACAC")
"0.105 (inactive)"
>>> assayresult("AGATTGGC")
"-0.0959 (inactive)"
>>> assayresult("CCCCAAAC")
"-0.0197 (inactive)"
>>> assayresult("CGCCTAAA")
"-0.117 (inactive)"
>>> assayresult("CATGTTGA")
"0.38 (active)"
>>> assayresult("ATGAACAA")
"0.286 (inactive)"
>>> assayresult("AAATTACT")
"0.124 (inactive)"
>>> assayresult("CTTTCCTA")
"-0.094 (inactive)"
>>> assayresult("ATCAACAG")
"0.109 (inactive)"
>>> assayresult("CTTACAAC")
"0.333 (active)"
>>> assayresult("AATTTACA")
"0.328 (active)"
>>> assayresult("CATACAAC")
"0.27 (inactive)"
>>> assayresult("AATGTTGG")
"0.115 (inactive)"
>>> assayresult("CTATACAC")
"0.0914 (inactive)"
>>> assayresult("GGAGTGGA")
"-0.133 (inactive)"
>>> assayresult("AAGTGAGA")
"-0.0758 (inactive)"
>>> assayresult("AACAACCT")
"0.243 (inactive)"
>>> assayresult("AGAGCAAG")
"0.0346 (inactive)"
>>> assayresult("CTTAACAA")
"0.228 (inactive)"
>>> assayresult("AGGAACAG")
"0.0859 (inactive)"
>>> assayresult("CGAACATC")
"0.279 (inactive)"
>>> assayresult("CTTACAAG")
"0.343 (active)"
>>> assayresult("ATGAACAT")
"0.326 (active)"
>>> assayresult("ACTAGCTC")
"0.0549 (inactive)"
>>> assayresult("ACTAGAAG")
"0.00911 (inactive)"
>>> assayresult("AGAAAGCA")
"0.0369 (inactive)"
>>> assayresult("AGAACATA")
"0.318 (active)"
>>> assayresult("CATGGCCC")
"-0.169 (inactive)"
>>> assayresult("AGATTAGG")
"0.00061 (inactive)"
>>> assayresult("ACAAATCC")
"0.179 (inactive)"
>>> assayresult("AGAACAGG")
"0.139 (inactive)"
>>> assayresult("ATATACAA")
"≥ 0.355 (active)"
>>> assayresult("CATTGTAC")
"0.323 (active)"
>>> assayresult("GACTTACA")
"0.246 (inactive)"
>>> assayresult("CGAACATA")
"0.343 (active)"
>>> assayresult("ACATGTAA")
"0.468 (active)"
>>> assayresult("ATATACAG")
"0.186 (inactive)"
>>> assayresult("CGATTCAG")
"-0.0377 (inactive)"
>>> assayresult("AGATGTAC")
"0.299 (inactive)"
>>> assayresult("AGGAACAT")
"0.339 (active)"
>>> assayresult("AATCTAGT")
"0.0691 (inactive)"
>>> assayresult("ATCGTGTA")
"0.407 (active)"
>>> assayresult("TCATGGAA")
"0.0375 (inactive)"
>>> assayresult("AGTTCTAT")
"0.0299 (inactive)"
>>> assayresult("AATGTTGT")
"0.368 (active)"
>>> assayresult("CAATTACA")
"0.334 (active)"
>>> assayresult("AGGAACAC")
"0.193 (inactive)"
>>> assayresult("GCGACAGA")
"0.0849 (inactive)"
>>> assayresult("CCCATAGG")
"-0.163 (inactive)"
>>> assayresult("GATAATCA")
"0.0651 (inactive)"
>>> assayresult("AACAACCC")
"0.247 (inactive)"
>>> assayresult("GTCGTGGA")
"-0.0165 (inactive)"
>>> assayresult("AACTTACA")
"≥ 0.344 (active)"
>>> assayresult("GTGAACAC")
"0.256 (inactive)"
>>> assayresult("AACTGTAA")
"0.197 (inactive)"
>>> assayresult("CTATACAG")
"0.0968 (inactive)"
>>> assayresult("ACATGTAC")
"≥ 0.48 (active)"
>>> assayresult("ACAATGGC")
"0.0838 (inactive)"
>>> assayresult("AATCGGTG")
"0.0507 (inactive)"
>>> assayresult("TCCTGTAA")
"0.2 (inactive)"
>>> assayresult("TACGTGGA")
"-0.086 (inactive)"
>>> assayresult("AATGTTGA")
"0.17 (inactive)"
>>> assayresult("ATCGTGCA")
"0.127 (inactive)"
>>> assayresult("GGGCTTTA")
"-0.186 (inactive)"
>>> assayresult("AGATGCTA")
"0.0221 (inactive)"
>>> assayresult("CGTCCGGC")
"-0.219 (inactive)"
>>> assayresult("CCCTTACA")
"0.152 (inactive)"
>>> assayresult("CTCGTGTA")
"0.27 (inactive)"
>>> assayresult("CAATTACG")
"0.0582 (inactive)"
>>> assayresult("AGTGAAAC")
"0.108 (inactive)"
>>> assayresult("CCCTGTAC")
"0.158 (inactive)"
>>> assayresult("CAGGGATC")
"-0.124 (inactive)"
>>> assayresult("AAATGTAC")
"0.279 (inactive)"
>>> assayresult("CATGTTGG")
"0.285 (inactive)"
>>> assayresult("ACACGTAA")
"0.309 (inactive)"
>>> assayresult("ATTATCAG")
"0.0887 (inactive)"
>>> assayresult("GCGAGAGA")
"-0.0945 (inactive)"
>>> assayresult("ATACATGG")
"0.422 (active)"
>>> assayresult("GAGCAACA")
"0.0811 (inactive)"
>>> assayresult("ACGAACAT")
"0.349 (active)"
>>> assayresult("GTATACAC")
"0.249 (inactive)"
>>> assayresult("CTGAACAC")
"0.235 (inactive)"
>>> assayresult("GTATACTA")
"0.16 (inactive)"
>>> assayresult("AGCGTGTC")
"0.231 (inactive)"
>>> assayresult("AAACTTTC")
"-0.0217 (inactive)"
>>> assayresult("TAATTATA")
"0.234 (inactive)"
>>> assayresult("CTCGTGTC")
"0.26 (inactive)"
>>> assayresult("AGTCACAG")
"0.0714 (inactive)"
>>> assayresult("GTATACAA")
"0.318 (active)"
>>> assayresult("CCGGTAAC")
"-0.0103 (inactive)"
